The values you see were collected from patent US20210395344A1.

biological target: T1, COVID S1 RBM Fc fusion (Antigen 2) (SARS-CoV-2, UniProt P0DTC2 437-508); experiment: phage ELISA
T1 construct: domain: RBM
result type: specificity ELISA, percent binding relative to Acro S1 (%)
Note: unit % is implicit; provide only the numeric part.

1) SARS-CoV-2 variant 1-8 (antibody, V domains shown) VH: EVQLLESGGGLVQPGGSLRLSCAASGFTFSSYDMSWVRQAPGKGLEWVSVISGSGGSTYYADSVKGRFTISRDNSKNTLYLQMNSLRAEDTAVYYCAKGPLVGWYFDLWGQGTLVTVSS VL: QSALTQPASVSGSPGQSITISCTGTSNDVGSYNLVSWYQQHPGKAPKLMIYEGSKRPSGVSNRFSGSKSGNTASLTISGLQAEDEADYYCCSYAGSRYVVFGGGTKLTVL; 10.3

**Query** Look at this binder and give its reported specificity ELISA, percent binding relative to Acro S1. SARS-CoV-2 variant 1-37 (antibody, V domains shown) VH: EVQLLESGGGLVQPGGSLRLSCAASGFTFTSYAMNWVRQAPGKGLEWVTAISGSGGSTFYADSVKGRFTISRDNSKNTLYLQMNSLRAEDTAVYYCTRPPYGDYGDYWGQGTLVTVSS VL: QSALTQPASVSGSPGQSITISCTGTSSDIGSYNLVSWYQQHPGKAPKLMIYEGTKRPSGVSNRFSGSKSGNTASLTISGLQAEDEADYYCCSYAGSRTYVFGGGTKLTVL
**Result** 12.3

**Query** // query: SARS-CoV-2 variant 1-29 (antibody, V domains shown) VH: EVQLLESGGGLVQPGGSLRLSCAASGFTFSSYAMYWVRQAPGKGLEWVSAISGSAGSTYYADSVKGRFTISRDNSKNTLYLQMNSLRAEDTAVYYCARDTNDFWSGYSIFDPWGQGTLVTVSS VL: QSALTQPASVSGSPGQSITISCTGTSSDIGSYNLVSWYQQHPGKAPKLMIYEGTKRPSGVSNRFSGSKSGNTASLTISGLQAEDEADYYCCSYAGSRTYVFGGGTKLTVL
**Result** 78.3

**Query** Further, for SARS-CoV-2 variant 1-17 (antibody, V domains shown) VH: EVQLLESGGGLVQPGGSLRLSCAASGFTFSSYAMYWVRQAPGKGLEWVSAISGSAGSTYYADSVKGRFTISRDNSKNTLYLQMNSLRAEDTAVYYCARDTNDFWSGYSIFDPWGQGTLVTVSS VL: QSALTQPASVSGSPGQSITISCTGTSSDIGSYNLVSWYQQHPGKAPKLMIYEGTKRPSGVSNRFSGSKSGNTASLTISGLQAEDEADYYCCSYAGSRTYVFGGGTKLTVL ?
**Result** 5.2

**Query** // query: SARS-CoV-2 variant 1-23 (antibody, V domains shown) VH: EVQLLESGGGLVQPGGSLRLSCAASGFTFSSYAISWVRQAPGKGLEWVSIISGSGGSTYYADSVKGRFTISRDNSKNTLYLQMNSLRAEDTAVYYCAREGYRDYLWYFDLWGQGTLVTVSS VL: QSALTQPASVSGSPGQSITISCTGTSNDVGSYNLVSWYQQHPGKAPKLMIYEGNKRPSGVSNRFSGSKSGNTASLTISGLQAEDEADYYCCSYAGSYTVFGGGTKLTVL
**Result** 32
